Tested on: SR leukemia
Assay: NCI tumour cell line growth inhibition, 48 h; in the data active = GI50 below about 0.43 µM; inactive = the rest
Outcomes: active, inactive

1) C[CH2][Hg][S]c1ccccc1C(=O)O    inactive
2) O=C(NNS(=O)(=O)c1ccc(Cl)cc1Cl)c1cccnc1Nc1ccc(Cl)cc1    inactive
3) C=C1[C@@H](O)O[C@H]2[C@H]1C[C@H](OC(C)=O)[C@]13C(=O)O[C@H]4C[C@](C)(O)[C@H]([C@H]41)C31C=C(C)[C@]2(O)O1    inactive
4) CC1C=CC(OC(=O)C(C)(O)CCC(O)(C(=O)OC2CC(O)C(C(C)C)CC2(C)O)C(C)C)(C(C)C)CC1 (centres undefined)    active
5) C=CCc1cc(Nc2c3ccc(Cl)cc3nc3ccc(OC)cc23)cc(CN(CC)CC)c1O    active
6) COc1cc2c(cc1F)C(c1ccccc1Cl)=Nc1c(n[nH]c1C)N2    active
7) COc1cc2cc(Oc3ccc(NC(=O)c4ccc(Cl)c(Cl)c4)cc3)c(C)nc2cc1OC    inactive
8) CN1CCN(CCCCCN=c2cc3c(=O)n(CCCCCN4CCN(C)CC4)c(=O)c4c(NCCCCCN5CCN(C)CC5)cc5c(O)n(CCCCCN6CCN(C)CC6)c(=O)c2c5c4-3)CC1    inactive
9) COC(=O)c1cc(-c2ccc(OC)c(OC)c2)[nH]c1N/N=C/c1c(Cl)cccc1Cl    active
